Where a name gives a salt, the structure may show the parent alone.
measurement_label: melting point

Per the record, "CC1(C)CC(=O)c2ccc(OC3CCCCC3)nc2C1.Cl" has melting point of 126 to 127 °C

The reported melting point of the compound CCCCCCc1ccc2c(n1)CC(c1ccc(N(C)C)cc1)CC2=O (stereo not shown) (as salt: hydrochloride) [Example 32, dihydrochloride] was 195 to 196 °C

The reported melting point of the compound CC1(C)CC(=O)c2cc(C#N)c(N3CCCCC3)nc2C1 [Example 7] was 99 to 100 °C

Lab note: CC1(C)CCc2nc(C34CC5CC(CC(C5)C3)C4)ccc2C1=O (as salt: hydrochloride) [Example 41] gave melting point of 203 to 204 °C

# compound CC(Nc1ccc2c(n1)CC1CCCCC1C2=O)c1ccccc1 (stereo not shown) [Example 112] ; its melting point = 156 to 158 °C

Per the records, this compound ( CCCCSc1nc2c(cc1C#N)C(=O)CC(C)(C)C2 [Example 1] ) has melting point equal to 50 to 52 °C

For reference, reported melting point for "COc1ccccc1CCc1ccc2c(n1)CCCC2=O.Cl" stands at 160 to 162 °C

Data point: "Cl.O=C1CCCc2nc(C34CC5CC(CC(C5)C3)C4)ccc21" ; melting point = 214 to 216 °C

# compound "CC1(C)CC(=O)c2cc(C#N)c(NCc3ccccc3)nc2C1.Cl" ; its melting point = 163 to 164 °C

Field melting point (entry "CC(C)COc1ccc2c(n1)CC(C)(C)CC2=O.Cl" ) reads 157 to 158 °C

GET /value?item= CCCCCCc1ccc2c(n1)C(C)CC(C)(C)C2=O (stereo not shown) (as salt: hydrochloride) [Example 55] &field=melting point returns 199 to 200 °C

GET /value?item= "CC1(C)CC(=O)c2ccc(NCc3ccccc3)nc2C1.Cl" &field=melting point returns 215 to 216 °C

====

Examples of compounds with documented melting point follow.
Counter-ions that a name gives are not always drawn.

Here is how some compounds turned out for melting point.
[
  {
    "compound": "CC1(C)CC(=O)c2ccc(C34CC5CC(CC(C5)C3)C4)nc2C1.Cl",
    "melting point": "210 to 212 °C"
  },
  {
    "compound": "CC1(C)CC(=O)c2ccc(OCc3ccccc3)nc2C1.Cl",
    "melting point": "87 to 88 °C"
  },
  {
    "compound": "CCCC1CCc2nc(-c3ccc(OC)cc3)ccc2C1=O (stereo not shown) (as salt: hydrochloride)",
    "melting point": "212 to 213 °C"
  }
]

Next, consider the following compound.
Input O=C1CC2(CCCCC2)Cc2nc(OCc3ccccc3)ccc21 (as salt: hydrochloride) . Output melting point: 276 to 277 °C
